# Protocol details: recombinant UMI read abundance after kanamycin selection (control-corrected) (log10(CPM+1)); higher = more efficient recombination; extreme values may be limits of the assay; sequences stand for … in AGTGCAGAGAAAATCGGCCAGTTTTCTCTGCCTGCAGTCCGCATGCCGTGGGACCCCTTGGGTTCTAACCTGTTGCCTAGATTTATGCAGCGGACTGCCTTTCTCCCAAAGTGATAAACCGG…AGGTTGGTTTCACT; site = the 11-nt donor;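 note: IS621 bridge recombinase in Escherichia coli cells against a fixed T5 target plasmid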
Metric: recombinant UMI read abundance (log10)

AATTTGTCATGGACCGGTTTTCCCGGTAATCCGTATTTGAC (site AATTTGTCTGT): 0
GGTACAACATGGACCGGTTTTCCCGGTAATCCGTATTTGTA (site GGTGCAACTTA): 0.0119
CCCGTCGCATGGACCGGTTTTCCCGGTAATCCGTATTTGCC (site CCCGTCGCTGG): 1.45
GTATGCCCATGGACCGGTTTTCCCGGTAATCCGTATTTGTA (site GTATGCGCTTA): 0.0563
TCCAATGCATGGACCGGTTTTCCCGGTAATCCGTATTTGCC (site TCCAATGCTGG): 0
ATAACGCCATGGACCGGTTTTCCCGGTAATCCGTATTTGTC (site ATAACGCCTGA): 1.58
GTAGCTACATGGACCGGTTTTCCCGGTAATCCGTATTTGAC (site GTAGTTACTGT): 1.7
CTTCTCTCATGGACCGGTTTTCCCGGTAATCCGTATTTGTA (site TTTCTCTCTTA): 0.396
TTATCATCATGGACCGGTTTTCCCGGTAATCCGTATTTGCT (site CGATCATCTAG): 0.595
CTAAATGCATGGACCGGTTTTCCCGGTAATCCGTATTTGAG (site CTAAATGCTCT): 2.87
CGTTTAACATGGACCGGTTTTCCCGGTAATCCGTATTTGGC (site CGTTTAACTGC): 0.793
CATTATCCATGGACCGGTTTTCCCGGTAATCCGTATTTGCT (site CATTATCCTAG): 1.59
CAACAACCATGGACCGGTTTTCCCGGTAATCCGTATTTGTC (site CAACAACCTGA): 0.474
CAATGCTCATGGACCGGTTTTCCCGGTAATCCGTATTTGAA (site CAATCCTCTTT): 0.0831
GCTACTGCATGGACCGGTTTTCCCGGTAATCCGTATTTGCC (site GATACTGCTGG): 0
CCCCACACATGGACCGGTTTTCCCGGTAATCCGTATTTGTA (site CCCCAAACTTA): 0
CGCCGTACATGGACCGGTTTTCCCGGTAATCCGTATTTGCT (site CGCAGTACTAG): 0.331
CGATCATCATGGACCGGTTTTCCCGGTAATCCGTATTTGCT (site CGATCATCTTG): 0
TAAAGTGCATGGACCGGTTTTCCCGGTAATCCGTATTTGTA (site TAAAGTTCTTA): 0
CCGGAGTCATGGACCGGTTTTCCCGGTAATCCGTATTTGCC (site CTGGAGTCTGG): 0
TTTGCAGCATGGACCGGTTTTCCCGGTAATCCGTATTTGCT (site TTTGCTGCTAG): 0.00602
TCAGTGTCATGGACCGGTTTTCCCGGTAATCCGTATTTGCT (site TCAGTGTCTAG): 2.58
TGACCGGCATGGACCGGTTTTCCCGGTAATCCGTATTTGGC (site TGCCCGGCTGC): 0
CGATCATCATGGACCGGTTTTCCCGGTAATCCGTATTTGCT (site CTCTCATCTAG): 0.961
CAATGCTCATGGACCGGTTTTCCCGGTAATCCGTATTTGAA (site CAATGTTCTTT): 0
ATTGGGACATGGACCGGTTTTCCCGGTAATCCGTATTTGGT (site ATTGAGACTAC): 0.413
ACACCACCATGGACCGGTTTTCCCGGTAATCCGTATTTGAT (site ACACCACCTAT): 0.00417
CTACTATCATGGACCGGTTTTCCCGGTAATCCGTATTTGAC (site CTACTATCTGT): 2.69
GACAAACCATGGACCGGTTTTCCCGGTAATCCGTATTTGGT (site GACAATCCTAC): 0
CTTGGACCATGGACCGGTTTTCCCGGTAATCCGTATTTGTT (site CTTGGACCTAA): 0.00553
CGTACCACATGGACCGGTTTTCCCGGTAATCCGTATTTGAG (site CGTACCACTCT): 1.06
AGGATCCCATGGACCGGTTTTCCCGGTAATCCGTATTTGTG (site AGGGTCCCTCA): 0.00264
AGGAAGACATGGACCGGTTTTCCCGGTAATCCGTATTTGGA (site AGGAAGACTTA): 1.71
CATTCGTCATGGACCGGTTTTCCCGGTAATCCGTATTTGGC (site CATTCGTCTGC): 0.595
AGCACAGCATGGACCGGTTTTCCCGGTAATCCGTATTTGGG (site AGCACAGCTCC): 0.0126
GGCAGAGCATGGACCGGTTTTCCCGGTAATCCGTATTTGAG (site GGCAGAGCTCT): 1.67
